# experimental target: PSMA-expressing C4-2 cells (Homo sapiens, UniProt Q04609)
# Construct: PSMA-expressing C4-2 cells (ATCC, Cat. No. CRL-3314) were cultured in RPMI-1640; host or cells: C4-2 cells
# Sequence (Q04609 whole entry): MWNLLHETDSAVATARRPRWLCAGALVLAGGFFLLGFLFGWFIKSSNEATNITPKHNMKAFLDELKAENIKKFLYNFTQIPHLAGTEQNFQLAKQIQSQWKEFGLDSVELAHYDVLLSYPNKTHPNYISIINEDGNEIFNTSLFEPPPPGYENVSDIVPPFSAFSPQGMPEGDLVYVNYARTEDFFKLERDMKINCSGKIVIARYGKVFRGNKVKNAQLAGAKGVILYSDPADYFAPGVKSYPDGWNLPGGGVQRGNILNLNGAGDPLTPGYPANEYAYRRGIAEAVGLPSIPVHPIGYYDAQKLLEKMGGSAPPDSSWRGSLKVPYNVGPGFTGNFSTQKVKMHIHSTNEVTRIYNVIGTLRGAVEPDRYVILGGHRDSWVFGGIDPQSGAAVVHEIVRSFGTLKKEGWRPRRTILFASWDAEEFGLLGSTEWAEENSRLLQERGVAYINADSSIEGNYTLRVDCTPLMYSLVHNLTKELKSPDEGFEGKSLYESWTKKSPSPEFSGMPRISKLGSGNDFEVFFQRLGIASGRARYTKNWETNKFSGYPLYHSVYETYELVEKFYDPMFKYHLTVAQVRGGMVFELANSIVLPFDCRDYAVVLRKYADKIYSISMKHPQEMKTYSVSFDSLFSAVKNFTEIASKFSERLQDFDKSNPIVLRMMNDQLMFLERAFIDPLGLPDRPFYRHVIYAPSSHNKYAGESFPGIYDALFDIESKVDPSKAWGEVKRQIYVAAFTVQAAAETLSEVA
# measurement protocol: FACS binding assay (competition with 50 nM PSM-0183)
# condition context: pIC50 category of FACS binding, C4-2 cells; read-out: pIC50 [C4-2] CAT (converted)
Numbered stars: 1 amine (or outer) side, 2 acyl side, 3 side chain; on linkers, the order of the positions; unused ones are H or OH. Bridge positions count the residues as written; N and C are the ends. Square brackets hold non-standard residues; d marks the D form. Peptide text beside a SMILES is read from it. * marks the point of attachment. DOTA = O=C(O)CN1CCN(CC(=O)O)CCN(CC(=O)*)CCN(CC(=O)O)CC1; Phe(4-Cl) = N[C@@H](Cc1ccc(Cl)cc1)C(=O)O; X1 = O=C(CC1CCN([*:1])CC1)[*:2]; Lys(Me) = CNCCCC[C@H](N)C(=O)O; Tle = CC(C)(C)[C@H](N)C(=O)O; Nle = CCCC[C@H](N)C(=O)O; Aib = CC(C)(N)C(=O)O
# IC50 per record follows
recorded endpoint: IC50

{"compound": "CNCCCC[C@@H]1NC(=O)[C@@H](NC(=O)[C@H](Cc2ccc(Cl)cc2)NC(=O)C(C)(C)NC(=O)[C@@H](NC(=O)CC2CCN(C(=O)CN3CCN(CC(=O)O)CCN(CC(=O)O)CCN(CC(=O)O)CC3)CC2)[C@@H](C)O)CSSC[C@@H](C(=O)N[C@H](C(=O)N[C@H](C(N)=O)[C@@H](C)O)C(C)(C)C)NC(=O)[C@H](CC(N)=O)NC(=O)C(C)(C)NC(=O)[C@H](CCCNC(=N)N)NC1=O [PSM-0410] ({DOTA}-[X1]T[Aib][Phe(4-Cl)]C[Lys(Me)]R[Aib]NC[Tle]T-NH2; disulfide 5-10)", "endpoint result": "< 200 nM"}
{"compound": "CCCC[C@H](NC(=O)[C@@H]1CSSC[C@H](NC(=O)[C@H](Cc2ccccc2)NC(=O)[C@H](C)NC(=O)[C@@H](NC(C)=O)[C@@H](C)O)C(=O)N[C@@H](CCCCN)C(=O)N[C@@H](CCCNC(=N)N)C(=O)N[C@@H](C)C(=O)N[C@@H](CC(N)=O)C(=O)N1)C(=O)N[C@@H](C)C(=O)N[C@@H](CC(=O)O)C(N)=O [PSM-0476] (Ac-TAFCKRANC[Nle]AD-NH2; disulfide 4-9)", "endpoint result": "200 to 1260 nM"}

* * *

# IC50 per record follows
# experimental target: PSMA-expressing C4-2 cells (Homo sapiens, UniProt Q04609)
# Construct: PSMA-expressing C4-2 cells (ATCC, Cat. No. CRL-3314) were cultured in RPMI-1640; host or cells: C4-2 cells
# measurement protocol: FACS binding assay (competition with 50 nM PSM-0183)
# condition context: pIC50 category of FACS binding, C4-2 cells; read-out: pIC50 [C4-2] CAT (converted)
Bridge positions count the residues as written; N and C are the ends. Square brackets hold non-standard residues; d marks the D form. Peptide text beside a SMILES is read from it. ξ: configuration not given here. Thz(5,5-Me2) = CC1(C)SCN[C@@H]1C(=O)O; Tle = CC(C)(C)[C@H](N)C(=O)O; ξD = NC(CC(=O)O)C(=O)O; Aib = CC(C)(N)C(=O)O
recorded endpoint: IC50

{"compound": "CSCC[C@H](N)C(=O)N[C@H](C(=O)N[C@@H](C)C(=O)N[C@@H](Cc1ccccc1)C(=O)N[C@H]1CSSC[C@@H](C(=O)N[C@@H](CC(C)C)C(=O)N[C@H](C(=O)NC(CC(=O)O)C(=O)NCC(=O)N[C@@H](CO)C(N)=O)[C@@H](C)O)NC(=O)[C@H](CC(N)=O)NC(=O)[C@H](C)NC(=O)[C@H](CCCNC(=N)N)NC(=O)[C@H](CCCCN)NC1=O)[C@@H](C)O (some centres unmarked) [PSM-0498] (H-MTAFCKRANCLT[ξD]GS-NH2; disulfide 5-10)", "recorded endpoint": "IC50", "endpoint result": "< 200 nM"}
{"compound": "CC(=O)N[C@H](C(=O)NC(C)(C)C(=O)N[C@@H](Cc1ccccc1)C(=O)N[C@H]1CSSC[C@@H](C(=O)N[C@H](C(=O)N[C@H](C(=O)N[C@@H](CC(=O)O)C(N)=O)[C@@H](C)O)C(C)(C)C)NC(=O)[C@H](CC(N)=O)NC(=O)[C@H]2N(CSC2(C)C)C(=O)[C@H](CCCNC(=N)N)NC(=O)[C@H](CCCCN)NC1=O)[C@@H](C)O [PSM-0532] (Ac-T[Aib]FCKR[Thz(5,5-Me2)]NC[Tle]TD-NH2; disulfide 4-9)", "recorded endpoint": "IC50", "endpoint result": "< 200 nM"}

* * *

# experimental target: Fc-fusion protein of human PSMA (hPSMA-Fc) (Homo sapiens, UniProt Q04609)
# Construct: purchased Acro Biosystems PSA-H5264
# Sequence (Q04609 44-750 limits assumed): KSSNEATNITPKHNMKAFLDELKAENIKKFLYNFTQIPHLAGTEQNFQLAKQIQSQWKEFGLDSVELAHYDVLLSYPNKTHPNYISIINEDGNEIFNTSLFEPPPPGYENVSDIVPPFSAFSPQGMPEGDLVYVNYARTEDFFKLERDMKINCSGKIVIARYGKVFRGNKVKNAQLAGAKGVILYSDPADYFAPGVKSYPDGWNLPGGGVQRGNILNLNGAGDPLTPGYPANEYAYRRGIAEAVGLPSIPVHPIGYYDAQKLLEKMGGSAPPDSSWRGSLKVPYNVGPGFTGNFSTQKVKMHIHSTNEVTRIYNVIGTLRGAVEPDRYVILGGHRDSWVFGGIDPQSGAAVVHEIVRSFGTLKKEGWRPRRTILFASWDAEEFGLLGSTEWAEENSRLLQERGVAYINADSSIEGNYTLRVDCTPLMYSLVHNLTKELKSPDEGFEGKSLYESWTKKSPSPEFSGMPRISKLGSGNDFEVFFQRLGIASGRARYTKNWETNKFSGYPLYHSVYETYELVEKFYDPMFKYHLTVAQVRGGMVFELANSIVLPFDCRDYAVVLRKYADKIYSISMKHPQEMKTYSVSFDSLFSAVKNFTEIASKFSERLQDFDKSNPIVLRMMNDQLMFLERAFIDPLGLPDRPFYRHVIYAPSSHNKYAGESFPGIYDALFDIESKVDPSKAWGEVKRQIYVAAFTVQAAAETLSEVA
# measurement protocol: Surface plasmon resonance assay (Biacore T200, single cycle kinetic)
# Format: binding
# condition context: PSMA SPR assay, hPSMA-Fc, 25° C.; pKD category; read-out: pKD CAT (converted)
Numbered stars: 1 amine (or outer) side, 2 acyl side, 3 side chain; on linkers, the order of the positions; unused ones are H or OH. Bridge positions count the residues as written; N and C are the ends. Square brackets hold non-standard residues; d marks the D form. Peptide text beside a SMILES is read from it. * marks the point of attachment. DOTA = O=C(O)CN1CCN(CC(=O)O)CCN(CC(=O)*)CCN(CC(=O)O)CC1; X1 = O=C(CC1CCN([*:1])CC1)[*:2]; Tle = CC(C)(C)[C@H](N)C(=O)O; 4Abz = Nc1ccc(C(=O)O)cc1; Aib = CC(C)(N)C(=O)O
recorded endpoint: Kd

{"molecule": "C[C@@H](O)[C@H](NC(=O)[C@@H](NC(=O)[C@@H]1CSSC[C@H](NC(=O)[C@H](Cc2ccccc2)NC(=O)C(C)(C)NC(=O)c2ccc(NC(=O)CN3CCN(CC(=O)O)CCN(CC(=O)O)CCN(CC(=O)O)CC3)cc2)C(=O)N[C@@H](CCCCN)C(=O)N[C@@H](CCCNC(=N)N)C(=O)NC(C)(C)C(=O)N[C@@H](CC(N)=O)C(=O)N1)C(C)(C)C)C(N)=O [PSM-0316] ({DOTA-4Abz}-[Aib]FCKR[Aib]NC[Tle]T-NH2; disulfide 3-8)", "recorded endpoint": "Kd", "endpoint result": "< 12.6 nM"}
{"molecule": "CC[C@H](C)[C@H](NC(=O)CC1CCN(C(=O)CN2CCN(CC(=O)O)CCN(CC(=O)O)CCN(CC(=O)O)CC2)CC1)C(=O)NC(C)(C)C(=O)N[C@@H](Cc1ccccc1)C(=O)N[C@H]1CSSC[C@@H](C(=O)N[C@H](C(=O)N[C@H](C(N)=O)[C@@H](C)O)C(C)(C)C)NC(=O)[C@H](CC(N)=O)NC(=O)C(C)(C)NC(=O)[C@H](CCCNC(=N)N)NC(=O)[C@H](CCCCN)NC1=O [PSM-0357] ({DOTA}-[X1]I[Aib]FCKR[Aib]NC[Tle]T-NH2; disulfide 5-10)", "recorded endpoint": "Kd", "endpoint result": "12.6 to 126 nM"}

* * *

# experimental target: Fc-fusion protein of human PSMA (hPSMA-Fc) (Homo sapiens, UniProt Q04609)
# Construct: purchased Acro Biosystems PSA-H5264
# measurement protocol: Surface plasmon resonance assay (Biacore T200, single cycle kinetic)
# Type: binding
# condition context: pKD category for PSMA SPR activity assay, hPSMA-Fc, 25° C.; read-out: pKD CAT (converted)
Bridge positions count the residues as written; N and C are the ends. Square brackets hold non-standard residues; d marks the D form. Peptide text beside a SMILES is read from it. * marks the point of attachment. X7 = O=C(O)CN1CCN(CC(=O)O)CCN(CC(=O)NC2CCN(CC(=O)*)CC2)CCN(CC(=O)O)CC1; Tle = CC(C)(C)[C@H](N)C(=O)O; Aib = CC(C)(N)C(=O)O

{"compound": "CC(=O)N[C@H](C(=O)NC(C)(C)C(=O)N[C@@H](Cc1ccccc1)C(=O)N[C@H]1CSSC[C@@H](C(=O)N[C@H](C(=O)N[C@H](C(N)=O)[C@@H](C)O)C(C)(C)C)NC(=O)[C@H](CC(N)=O)NC(=O)[C@H](CCCCNC(=O)CN2CCC(NC(=O)CN3CCN(CC(=O)O)CCN(CC(=O)O)CCN(CC(=O)O)CC3)CC2)NC(=O)[C@H](CCCNC(=N)N)NC(=O)[C@H](CCCCN)NC1=O)[C@@H](C)O [PSM-0464] (Ac-T[Aib]FCKRK(X7)NC[Tle]T-NH2; disulfide 4-9)", "Kd": "< 12.6 nM"}
